Just for reference, patent US20250257064A1 is where these values come from.

biological target: BCL-XL/BAK (Homo sapiens, UniProt Q07817); assay: Screening on inhibitory activity for BCL-XL/BAK binding (Cisbio HTRF kit)
Sequence (Q07817 whole entry, species assumed): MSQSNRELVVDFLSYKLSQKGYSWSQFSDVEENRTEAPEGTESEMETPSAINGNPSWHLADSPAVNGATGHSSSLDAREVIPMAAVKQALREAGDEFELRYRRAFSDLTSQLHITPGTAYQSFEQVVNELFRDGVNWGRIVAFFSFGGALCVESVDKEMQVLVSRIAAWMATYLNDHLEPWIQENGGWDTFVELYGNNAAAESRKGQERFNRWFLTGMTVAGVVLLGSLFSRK
pIC50: −log10 of the molar value.
RESULT TYPE: pIC50

The cases that follow already have their pIC50 on record.
CC1(C)CCC(CN2CCN(c3ccc(C(=O)NS(=O)(=O)c4ccc(NCC5CN(C(=O)C(C)(C)C)CCO5)c([N+](=O)[O-])c4)c(Oc4cnc5[nH]ccc5c4)c3)CC2)=C(c2ccc(C(F)(F)F)cc2Cl)C1 (stereo not drawn) :: 6.68
CC1(C)CCC(CN2CCN(c3ccc(C(=O)NS(=O)(=O)c4ccc(NCCCC5CN(S(C)(=O)=O)CCO5)c([N+](=O)[O-])c4)c(Oc4cnc5[nH]ccc5c4)c3)CC2)=C(c2ccc(C(F)(F)F)cc2Cl)C1 (stereo not drawn) :: 6.96
CC1(C)CCC(CN2CCN(c3ccc(C(=O)NS(=O)(=O)c4ccc(NC[C@@H]5CCOC5)c([N+](=O)[O-])c4)c(Oc4cnc5[nH]ccc5c4)c3)CC2)=C(c2ccc(C(F)(F)F)cc2Cl)C1 :: 6.80
CC(C)C(=O)N1CCOC(CNc2ccc(S(=O)(=O)NC(=O)c3ccc(N4CCN(CC5=C(c6ccc(C(F)(F)F)cc6Cl)CC(C)(C)CC5)CC4)cc3Oc3cnc4[nH]ccc4c3)cc2[N+](=O)[O-])C1 (stereo not drawn) :: 6.71

P. CC1(C)CCC(CN2CCN(c3ccc(C(=O)NS(=O)(=O)c4ccc(NCC5CCOCC5)c([N+](=O)[O-])c4)c(Oc4cnc5[nH]ccc5c4)c3)CC2)=C(c2ccc(C(F)(F)F)cc2Cl)C1
Q. CC1(C)CCC(CN2CCN(c3ccc(C(=O)NS(=O)(=O)c4ccc(NCC5CCCCO5)c([N+](=O)[O-])c4)c(Oc4cnc5[nH]ccc5c4)c3)CC2)=C(c2ccc(C(F)(F)F)cc2Cl)C1 (stereo not drawn)
Query block: Returns: the argument ( P or Q ) having the larger pIC50. Record your answer as the label of the chosen record.
Result block: P

---

target: BCL-XL/BAK (Homo sapiens); assay: Screening on inhibitory activity for BCL-XL/BAK binding (Cisbio HTRF kit)
pIC50: −log10 of the molar value.
RESULT TYPE: pIC50

Below, each entry is followed by its recorded pIC50 result.
COCC(=O)N1CCCC(CNc2ccc(S(=O)(=O)NC(=O)c3ccc(N4CCN(CC5=C(c6ccc(C(F)(F)F)cc6Cl)CC(C)(C)CC5)CC4)cc3Oc3cnc4[nH]ccc4c3)cc2[N+](=O)[O-])C1 (stereo not drawn) :: 6.84
CC(C)C(=O)N1CCO[C@@H](CNc2ccc(S(=O)(=O)NC(=O)c3ccc(N4CCN(CC5=C(c6ccc(C(F)(F)F)cc6Cl)CC(C)(C)CC5)CC4)cc3Oc3cnc4[nH]ccc4c3)cc2[N+](=O)[O-])C1 :: 6.84
CC(=O)N1CCO[C@H](CNc2ccc(S(=O)(=O)NC(=O)c3ccc(N4CCN(CC5=C(c6ccc(C(F)(F)F)cc6Cl)CC(C)(C)CC5)CC4)cc3Oc3cnc4[nH]ccc4c3)cc2[N+](=O)[O-])C1 :: 6.87
CC1(C)CCC(CN2CCN(c3ccc(C(=O)NS(=O)(=O)c4ccc(NCC5CCCN(S(C)(=O)=O)C5)c([N+](=O)[O-])c4)c(Oc4cnc5[nH]ccc5c4)c3)CC2)=C(c2ccc(C(F)(F)F)cc2Cl)C1 (stereo not drawn) :: 6.14
CCOC(=O)N1CCOC(CNc2ccc(S(=O)(=O)NC(=O)c3ccc(N4CCN(CC5=C(c6ccc(C(F)(F)F)cc6Cl)CC(C)(C)CC5)CC4)cc3Oc3cnc4[nH]ccc4c3)cc2[N+](=O)[O-])C1 (stereo not drawn) :: 6.60

a. CC1(C)CCC(CN2CCN(c3ccc(C(=O)NS(=O)(=O)c4ccc(NC[C@H]5CCCOC5)c([N+](=O)[O-])c4)c(Oc4cnc5[nH]ccc5c4)c3)CC2)=C(c2ccc(C(F)(F)F)cc2Cl)C1
b. CC1(C)CCC(CN2CCN(c3ccc(C(=O)NS(=O)(=O)c4ccc(NC[C@@H]5CCCOC5)c([N+](=O)[O-])c4)c(Oc4cnc5[nH]ccc5c4)c3)CC2)=C(c2ccc(C(F)(F)F)cc2Cl)C1
Query block: // returns a or b , whichever has the lower pIC50 Let me know the label of the one you choose.
Result block: a
(a: 6.66, b: 6.92)

P. CC1(C)CCC(CN2CCN(c3ccc(C(=O)NS(=O)(=O)c4ccc(NCC5CCOCC5)c([N+](=O)[O-])c4)c(Oc4cnc5[nH]ccc5c4)c3)CC2)=C(c2ccc(C(F)(F)F)c(F)c2)C1
Q. CC1(C)CCC(CN2CCN(c3ccc(C(=O)NS(=O)(=O)c4ccc(NCC5CN(C=O)CCO5)c([N+](=O)[O-])c4)c(Oc4cnc5[nH]ccc5c4)c3)CC2)=C(c2ccc(C(F)(F)F)cc2Cl)C1 (stereo not drawn)
Query block: Lab log: flag the item ( P or Q ) with the smaller pIC50 figure. Lab log: write the label of the selected item as the result.
Result block: P
(P: 5.71, Q: 6.93)
